Experiment: stability of linaclotide compositions with formaldehyde scavenger compounds, Cys1-IMD by RP-HPLC
Assay type: physicochemical
Details: 40° C., 75% relative humidity, 13 weeks
Peptide text beside a SMILES is read from it.
measurement_label: % decrease in Cys1-IMD as compared to negative control (after 13 weeks) (%)
Report the figure in % without appending any unit label.

1) COC(=O)[C@H](Cc1ccccc1)NC(=O)[C@@H](N)CC(=O)O [aspartame] (H-Asp-Phe-OMe) :: −27
2) CC(C)C[C@H](N)C(=O)O [leucine] :: −31
3) NCC(=O)NCC(=O)O [glycine-glycine] (H-Gly-Gly-OH) :: −44
4) CNC[C@H](O)[C@@H](O)[C@H](O)[C@H](O)CO :: −76
5) NCCCC[C@H](N)C(=O)O :: −47
6) N[C@@H](Cc1c[nH]cn1)C(=O)O :: −72
7) NC(=O)C[C@H](N)C(=O)O :: −59

Could you now look at the following compound, please?
Find the recorded % decrease in Cys1-IMD as compared to negative control (after 13 weeks) belonging to CC(C)C[C@H](N)C(=O)O [lyophilized leucine, leucine] and report it.
−61

----------
Readings of % Cys1-IMD after storage 13 Week for the listed molecules
Test: stability of linaclotide compositions with formaldehyde scavenger compounds, Cys1-IMD by RP-HPLC
Assay type: physicochemical
Conditions: 40° C., 75% relative humidity, 13 weeks; percent of chromatogram area; labeled canister (formaldehyde stressor)
Peptide text beside a SMILES is read from it.
Report as a plain number; the unit % is understood.

1) NC(=O)C[C@H](N)C(=O)O :: 1.45
2) N[C@@H](Cc1c[nH]cn1)C(=O)O :: 1.00

% Cys1-IMD after storage 13 Week for COC(=O)[C@H](Cc1ccccc1)NC(=O)[C@@H](N)CC(=O)O [aspartame] (H-Asp-Phe-OMe) ?
2.58

Param item: NCCCC[C@H](N)C(=O)O
1.87

# iterate: CC(C)C[C@H](N)C(=O)O [lyophilized leucine, leucine]
1.36

And what about the molecule CC(C)C[C@H](N)C(=O)O [leucine] ?
2.44

Try the molecule CNC[C@H](O)[C@@H](O)[C@H](O)[C@H](O)CO
0.84

Input NCC(=O)NCC(=O)O [glycine-glycine] (H-Gly-Gly-OH)
1.98

----------
Assay: stability of linaclotide compositions with formaldehyde scavenger compounds, Cys1-IMD by RP-HPLC
Assay type: physicochemical
Conditions: 40° C., 75% relative humidity, 4 weeks; percent of chromatogram area; labeled canister (formaldehyde stressor)
Peptide text beside a SMILES is read from it.
Lab note: anything with % Cys1-IMD after storage 4 Weeks at or over 0.6% counts as 1; the rest go in 0.

Worked examples, 5 compounds total:
1) CC(C)C[C@H](N)C(=O)O [lyophilized leucine, leucine] :: 0
2) COC(=O)[C@H](Cc1ccccc1)NC(=O)[C@@H](N)CC(=O)O [aspartame] (H-Asp-Phe-OMe) :: 1
3) NCCCC[C@H](N)C(=O)O :: 1
4) CC(C)C[C@H](N)C(=O)O [leucine] :: 1
5) NC(=O)C[C@H](N)C(=O)O :: 0

Next:
Evaluate NCC(=O)NCC(=O)O [glycine-glycine] (H-Gly-Gly-OH) : % Cys1-IMD after storage 4 Weeks at minimum 0.6%?
1
